For each entry below, report its selectivity ratio value.
test: Selectivity index, ratio of IC50 for rat L6 cells to IC50 for Leishmania donovani MHOM-ET-67/L82 axenic amastigotes; type: toxicity; conditions: read-out: Ratio IC50
Numbers only.

These solved cases illustrate the format of a correct answer.
>  <compound>
CC1CCc2ccccc2N1S(=O)(=O)c1ccc(C(C)(C)C)cc1 (centres undefined)

>  <measured_attribute>
selectivity ratio

>  <quantitative_result>
3.15

$$$$
>  <compound>
Cc1cc(C)c(C)c(S(=O)(=O)N2CCc3ccccc3C2)c1C

>  <measured_attribute>
selectivity ratio

>  <quantitative_result>
4.8

$$$$
>  <compound>
Cc1cc(C)c(C)c(S(=O)(=O)n2ccc3ccccc32)c1C

>  <measured_attribute>
selectivity ratio

>  <quantitative_result>
13.4

$$$$

Now examine the next entry.
Query: Indicate the recorded selectivity ratio value for this compound: Cc1cc(C)c(C)c(S(=O)(=O)N2CCc3ccccc32)c1C
Response: 17.2

---

system: Trypanosoma brucei rhodesiense; experiment: Antiparasitic activity against Trypanosoma brucei rhodesiense STIB 900 trypomastigote bloodstream form assessed as growth inhibition at 4.8 ug/ml after 72 hrs by resazurin dye-based fluorometric analysis relative to control; assay type: functional; conditions: STIB 900, 72 h, read-out: GI
Label true when inhibition of growth at 4.8 µg/mL >= 4%; otherwise false.

Please review the following examples before continuing.
>  <compound>
Cc1cc(C)c(C)c(S(=O)(=O)N2CCc3ccccc3C2)c1C

>  <experimental_target>
Trypanosoma brucei rhodesiense

>  <class>
false

$$$$
>  <compound>
O=S(=O)(c1ccc(Cl)cc1)N1CCc2ccccc21

>  <experimental_target>
Trypanosoma brucei rhodesiense

>  <class>
false

$$$$
>  <compound>
O=S(=O)(c1ccc(C(F)(F)F)cc1)N1CCc2ccccc2C1

>  <experimental_target>
Trypanosoma brucei rhodesiense

>  <class>
true

$$$$
>  <compound>
CC(=O)c1ccc(S(=O)(=O)N2c3ccccc3CCC2C)cc1 (stereo unspecified)

>  <experimental_target>
Trypanosoma brucei rhodesiense

>  <class>
false

$$$$
>  <compound>
O=S(=O)(c1ccc(Br)cc1)n1ccc2ccccc21

>  <experimental_target>
Trypanosoma brucei rhodesiense

>  <class>
false

$$$$
>  <compound>
Cc1cc(C)c(C)c(S(=O)(=O)N2c3ccccc3CC2C)c1C (stereo unspecified)

>  <experimental_target>
Trypanosoma brucei rhodesiense

>  <class>
false

$$$$
>  <compound>
Cc1cc(C)c(C)c(S(=O)(=O)N2c3ccccc3CCC2C)c1C (stereo unspecified)

>  <experimental_target>
Trypanosoma brucei rhodesiense

>  <class>
false

$$$$
>  <compound>
CC(=O)c1ccc(S(=O)(=O)N2CCc3ccccc3C2)cc1

>  <experimental_target>
Trypanosoma brucei rhodesiense

>  <class>
false

$$$$
>  <compound>
CC1CCc2ccccc2N1S(=O)(=O)c1ccccc1[N+](=O)[O-] (stereo unspecified)

>  <experimental_target>
Trypanosoma brucei rhodesiense

>  <class>
false

$$$$
>  <compound>
O=[N+]([O-])c1ccc(S(=O)(=O)n2ccc3ccccc32)cc1

>  <experimental_target>
Trypanosoma brucei rhodesiense

>  <class>
true

$$$$

Query: Hi team, for COc1ccc(S(=O)(=O)N2CCc3ccccc32)cc1 , is the recorded inhibition of growth at 4.8 µg/mL at or above 4%?
Response: false

Query: Record Nc1nc(N)nc(Nc2ccc([As]3SCC(CO)S3)cc2)n1 (stereo unspecified) [MELARSOPROL] ; criterion: inhibition of growth at 4.8 µg/mL no lower than 4%. Met?
Response: true

---

experiment: Selectivity index, ratio of IC50 for rat L6 cells to IC50 for intraerythrocytic form of chloroquine/pyrimethamine-resistant Plasmodium falciparum K1 infected in human RBC; format: toxicity; settings: read-out: Ratio IC50
measured_attribute: selectivity ratio
Answers are plain numbers.

>  <compound>
O=[N+]([O-])c1ccc(S(=O)(=O)N2CCCc3ccccc32)cc1

>  <measured_attribute>
selectivity ratio

>  <quantitative_result>
29.9

$$$$
>  <compound>
CC1CCc2ccccc2N1S(=O)(=O)c1ccc(C(C)(C)C)cc1 (stereo not given)

>  <measured_attribute>
selectivity ratio

>  <quantitative_result>
4.57

$$$$
>  <compound>
O=S(=O)(c1ccc(Cl)cc1)N1CCCc2ccccc21

>  <measured_attribute>
selectivity ratio

>  <quantitative_result>
2.43

$$$$
>  <compound>
CC1Cc2ccccc2N1S(=O)(=O)c1ccc(C(C)(C)C)cc1 (stereo not given)

>  <measured_attribute>
selectivity ratio

>  <quantitative_result>
8.1

$$$$

Could you now consider this next compound?
Query: Using known records, supply selectivity ratio for O=S(=O)(c1ccc(Br)cc1)N1CCCc2ccccc21
Response: 1.11

---

assay: Selectivity index, ratio of IC50 for rat L6 cells to IC50 for Trypanosoma cruzi Tulahuen C4 intracellular amastigotes infected in rat L6 cells; type: toxicity, cell-based; settings: read-out: Ratio IC50
measured_attribute: selectivity ratio
Answers are plain numbers.

Consider the worked cases shown below.
>  <molecule>
CC1Cc2ccccc2N1S(=O)(=O)c1ccc(Br)cc1 (stereo not drawn)

>  <selectivity ratio>
2.29

$$$$
>  <molecule>
COc1ccc(S(=O)(=O)N2c3ccccc3CC2C)cc1 (stereo not drawn)

>  <selectivity ratio>
0.04

$$$$
>  <molecule>
O=S(=O)(c1ccc(Cl)cc1)N1CCCc2ccccc21

>  <selectivity ratio>
1.28

$$$$
>  <molecule>
CC1CCc2ccccc2N1S(=O)(=O)c1ccc(C(F)(F)F)cc1 (stereo not drawn)

>  <selectivity ratio>
2

$$$$
>  <molecule>
O=[N+]([O-])c1cccc(S(=O)(=O)N2CCc3ccccc32)c1

>  <selectivity ratio>
14

$$$$

Fill in selectivity ratio for each of the 8 molecules listed.
1. O=[N+]([O-])c1ccc(S(=O)(=O)N2CCc3ccccc32)cc1
2. CC1Cc2ccccc2N1S(=O)(=O)c1ccc([N+](=O)[O-])cc1 (stereo not drawn)
3. CC1CCc2ccccc2N1S(=O)(=O)c1ccc(C(C)(C)C)cc1 (stereo not drawn)
4. O=[N+]([O-])c1ccc(S(=O)(=O)N2CCCc3ccccc32)cc1
5. CC1CCc2ccccc2N1S(=O)(=O)c1cccc(C(F)(F)F)c1 (stereo not drawn)
6. CC1Cc2ccccc2N1S(=O)(=O)c1ccc(C(C)(C)C)cc1 (stereo not drawn)
7. O=S(=O)(c1ccc(Br)cc1)N1CCCc2ccccc21
8. CC1Cc2ccccc2N1S(=O)(=O)c1ccc(Cl)cc1 (stereo not drawn)

Response:
7.9
24.8
1.12
21.7
1.98
1.74
0.53
2.31

---

Exercise: for every item that follows, state its recorded selectivity ratio.
test: Selectivity index, ratio of IC50 for rat L6 cells to IC50 for Leishmania donovani MHOM-ET-67/L82 axenic amastigotes; type: toxicity; conditions: read-out: Ratio IC50
Give bare numbers.

>  <molecule>
Cc1cc(C)c(C)c(S(=O)(=O)N2c3ccccc3CCC2C)c1C (stereo unspecified)

>  <selectivity ratio>
20

$$$$
>  <molecule>
O=S(=O)(c1ccc(Cl)cc1)N1CCCc2ccccc21

>  <selectivity ratio>
1.09

$$$$
>  <molecule>
Cc1cc(C)c(C)c(S(=O)(=O)N2CCCc3ccccc32)c1C

>  <selectivity ratio>
7.53

$$$$

Record selectivity ratio per entry; entries follow.
1. CC1Cc2ccccc2N1S(=O)(=O)c1ccc(C(C)(C)C)cc1 (stereo unspecified)
2. O=S(=O)(c1ccc(Br)cc1)N1CCCc2ccccc21
3. Cc1cc(C)c(C)c(S(=O)(=O)N2c3ccccc3CC2C)c1C (stereo unspecified)

Response:
1: 7.95; 2: 0.34; 3: 28.8

---

Exercise: for every item that follows, state its recorded inhibition of growth at 0.8 µg/mL.
test system: Trypanosoma cruzi; test: Antiparasitic activity against Trypanosoma cruzi Tulahuen C4 intracellular amastigotes infected in rat L6 cells assessed as growth inhibition at 0.8 ug/ml after 96 hrs by CPRG/Nonidet reagent based photometric analysis relative to control; format: functional; settings: Tulahuen C4, L6, 96 h, read-out: GI
Numbers only, in %.

>  <molecule>
CC1CCc2ccccc2N1S(=O)(=O)c1cccc(C(F)(F)F)c1 (stereo unspecified)

>  <quantitative_result>
5.4

$$$$
>  <molecule>
CC1Cc2ccccc2N1S(=O)(=O)c1ccc(Br)cc1 (stereo unspecified)

>  <quantitative_result>
0

$$$$
>  <molecule>
O=[N+]([O-])c1cccc(S(=O)(=O)n2ccc3ccccc32)c1

>  <quantitative_result>
0

$$$$

Batch: inhibition of growth at 0.8 µg/mL for all items listed.
1. O=S(=O)(c1ccc(F)cc1)N1CCc2ccccc21
2. CC(=O)c1ccc(S(=O)(=O)N2CCc3ccccc3C2)cc1
3. CC1Cc2ccccc2N1S(=O)(=O)c1cccc(C(F)(F)F)c1 (stereo unspecified)

Response:
0
0
0

Answer for every listed entry: what is its inhibition of growth at 0.8 µg/mL? The entries follow.
1. O=[N+]([O-])c1ccccc1S(=O)(=O)n1nnc2ccccc21
2. O=S(=O)(c1ccc(C(F)(F)F)cc1)N1CCCc2ccccc21
3. Cc1cc(C)c(C)c(S(=O)(=O)N2CCc3ccccc3C2)c1C
4. Cc1cc(C)c(C)c(S(=O)(=O)N2c3ccccc3CC2C)c1C (stereo unspecified)

Response:
1. 7.3
2. 0
3. 1.8
4. 0
